System: HeLa
Experiment: Antiproliferative activity against human HeLa cells by MTT assay
Format: functional, cell-based
Protocol conditions: Homo sapiens, HeLa; read-out: IC50
Parameter measured: IC50 (µM)
Report as a plain number; the unit µM is understood.

Data request: Check HeLa data and give IC50 for C/C1=C\CC[C@](C)(O)/C=C/[C@]2(C(C)C)CC/C(=C/CC1)C(=O)O2 (relative stereo) .
Data returned: 38.4
